System: Dirofilaria immitis microfilariae
Assay: Dirofilaria immitis microfilariae immobility assay (DiroImager, 72 h)
Settings: 10 µM; Dirofilaria immitis microfilariae
Kindly state % effect (motility), DIROIM MF for each of the entries shown.
Supply the numeric figure in %, leaving out any unit text.

Endpoint output: % effect (motility), DIROIM MF of CC1CCC(N2CCN(c3ccc(F)cc3)CC2)CC1 (centres unmarked) . Value? 0

Now consider O=[N+]([O-])c1cccc(CN2CCN(C3CCCCC3)CC2)c1 . 0

Now consider O=C(C1CCCCC1)N1CCN(c2ccc([N+](=O)[O-])cc2)CC1 . 40

Now consider O=[N+]([O-])c1ccc(N2CCN(C3CCCCCCC3)CC2)cc1 . 0

Now consider Fc1ccccc1N1CCN(C2CCCCCC2)CC1 . 0

Now consider c1ccc(N2CCN(CC3CCCC3)CC2)cc1 . 0

Now consider FC(F)(F)c1cccc(N2CCN(CC3CC4C=CC3C4)CC2)c1 (centres unmarked) . 0

Now consider N#Cc1ccc(N2CCN(CC3CCCCC3)CC2)cc1 . 0

Now consider c1ccc(N2CCN(CC3CCCCC3)CC2)cc1 . 0

Now consider Clc1ccc(N2CCN(C3CCCCCC3)CC2)cc1 . 0

Now consider FC(F)(F)c1cccc(N2CCN(CC3CCCCC3)CC2)c1 . 0

Now consider O=[N+]([O-])c1ccc(N2CCN(CC3CC4C=CC3C4)CC2)cc1 (centres unmarked) . 80

Now consider Cc1ccc(N2CCN(C3CCC(C)C3)CC2)cc1 (centres unmarked) . 0

Now consider O=[N+]([O-])c1ccc(N2CCN(C3CCCCCC3)CC2)cc1 . 40

Now consider O=[N+]([O-])c1ccc(N2CCN(C3CCCCC3)CC2)cc1 . 40

Now consider CCN1CCN(CC2CCCCC2)CC1 . 0

Now consider FC(F)(F)c1cccc(N2CCN(C3CCCCCCC3)CC2)c1 . 0

Now consider O=[N+]([O-])c1ccc(N2CCN(C3CCCC3)CC2)cc1 . 40

Now consider Fc1ccc(N2CCN(C3CCCCCC3)CC2)cc1 . 0

Now consider FC(F)(F)c1cccc(N2CCN(C3CCCCCC3)CC2)c1 . 0

Now consider O=[N+]([O-])c1ccc(N2CCN(CC3CC=CCC3)CC2)cc1 (centres unmarked) . 100

Now consider FC(F)(F)c1cccc(N2CCN(CC3CCCC3)CC2)c1 . 0

Now consider CCN1CCN(c2ccc([N+](=O)[O-])cc2)CC1 . 0

Now consider CC1CCC(N2CCN(c3ccc(Cl)cc3)CC2)C1 (centres unmarked) . 0

Now consider Clc1ccc(N2CCN(CC3CC4C=CC3C4)CC2)cc1 (centres unmarked) . 0

Now consider c1cc(N2CCN(CC3CCCCC3)CC2)ccn1 . 0

Now consider CC1CCC(N2CCN(c3ccc([N+](=O)[O-])cc3)CC2)CC1 (centres unmarked) . 80

Now consider O=[N+]([O-])c1ccc(CN2CCN(C3CCCC3)CC2)cc1 . 0

Now consider O=[N+]([O-])c1ccc(N2CCN(c3ccccc3O)CC2)cc1 . 0

Now consider N#Cc1ccc(N2CCN(CC3CCCC3)CC2)cc1 . 0

Now consider c1ccc(N2CCN(C3CCCCCCC3)CC2)cc1 . 0

Now consider Cc1cc([N+](=O)[O-])ccc1N1CCN(CC2CCCCC2)CC1 . 0

Now consider O=[N+]([O-])c1ccc(N2CCN(CC3CC3)CC2)cc1 . 0

Now consider O=[N+]([O-])c1ccc(N2CCN(Cc3ccccc3)CC2)cc1 . 0

Now consider CN1CCN(c2ccc([N+](=O)[O-])cc2)CC1 . 0

Now consider Cc1cc(N2CCN(CC3CCCCC3)CC2)ccc1[N+](=O)[O-] . 60

Now consider Clc1ccc(N2CCN(CC3CCCCC3)CC2)cc1 . 0

Now consider O=C(C1CCCC1)N1CCN(c2ccc([N+](=O)[O-])cc2)CC1 . 0

Now consider Cc1ccc(N2CCN(CC3CC4C=CC3C4)CC2)cc1 (centres unmarked) . 0

Now consider CC1CCC(N2CCN(c3ccccc3)CC2)CC1 (centres unmarked) . 0

Now consider c1cc(N2CCN(CC3CCC3)CC2)ccn1 . 0
